The origin of these recorded values is paper PMC7033671.

tested on: MV-4-11; assay: CellTiter-Blue cell viability, MV-4-11; type: cell-based; conditions: Homo sapiens, MV4-11, 72 h, read-out: IC50 against MV-4-11
reported_endpoint: pIC50
Please treat pIC50 as minus the base-10 logarithm of the molar concentration.

Which pIC50 is reported for this compound? Cc1ccc(C(=O)Nc2ccc(CN3CCN(C)CC3)c(C(F)(F)F)c2)cc1C#Cc1cnc2cccnn12 [ponatinib, reference compound] 10.05
